Recorded Particle size (nm) by entry
Assay: Particle size and PDI of lipid nanoparticles by dynamic light scattering
Type: physicochemical
Conditions: lipid nanoparticle with the cationic lipid, cholesterol, DSPC, DMG-PEG2000 (50/38.5/10/1.5 mol%), luciferase mRNA, N/P 6
Experimental: […] The particle size and particle size dispersity index (PDI) of the prepared lipid nanoparticles were measured using a Zetasizer Pro (purchased from Malvern Instruments Ltd) and a DynaPro NanoStar (purchased from Wyatt) dynamic light scattering instrument. […] This parameter was measured by the method of Quant-It™ RiboGreen RNA Assay (purchased from Invitrogen). […]
# number only, unit nm dropped from output

| Compound | Particle size (nm) |
| --- | --- |
| CCCCCCCCCOC(=O)C(C)(C)CCCCCCC(CCCCCCC(C)(C)C(=O)OCC(CCCCC)CCCCCCC)OC(=O)CCCN(C)C (stereo not drawn) | 95.69 |
| CCCCCCCCCOC(=O)C(C)(C)CCCCCC(CCCCCC(C)(C)C(=O)OCC(CCCCC)CCCCCCC)OC(=O)CC1CCN(CCO)CC1 (stereo not drawn) | 72.32 |

Asked: Particle size (nm) lookup needed for `CCCCCCCCCSC(=O)C(C)(C)CCCCCC(CCCCCC(C)(C)C(=O)SCCCCCCCCC)OC(=O)CC1CCN(CC)CC1` , thanks.
Given back: 101.04

Asked: Moving on to the next compound: `CCCCCCCCCCSC(=O)C(C)(C)CCCCCC(CCCCCC(C)(C)C(=O)SCCCCCCCCCC)OC(=O)CCCN(C)C`
Given back: 104.71

Asked: Request: `CCCCCCCCCCOC(=O)C(C)(C)CCCCCC(CCCCCC(C)(C)C(=O)OCCCCCCCCCC)OC(=O)CN(C)C`
Given back: 81.43

Asked: Follow-up item: `CCCCCCCC(CCCCCCC)COC(=O)CCC(C)(C)CCCC(CCCC(C)(C)CCC(=O)OCC(CCCCCCC)CCCCCCC)OC(=O)CCCN(C)C`
Given back: 112.08

Where these numbers come from: patent US12162819B2
